- target.desc: T1, human Chemokine like receptor 1 (human, UniProt Q99788 1-373)
- T1 sequence (looked up): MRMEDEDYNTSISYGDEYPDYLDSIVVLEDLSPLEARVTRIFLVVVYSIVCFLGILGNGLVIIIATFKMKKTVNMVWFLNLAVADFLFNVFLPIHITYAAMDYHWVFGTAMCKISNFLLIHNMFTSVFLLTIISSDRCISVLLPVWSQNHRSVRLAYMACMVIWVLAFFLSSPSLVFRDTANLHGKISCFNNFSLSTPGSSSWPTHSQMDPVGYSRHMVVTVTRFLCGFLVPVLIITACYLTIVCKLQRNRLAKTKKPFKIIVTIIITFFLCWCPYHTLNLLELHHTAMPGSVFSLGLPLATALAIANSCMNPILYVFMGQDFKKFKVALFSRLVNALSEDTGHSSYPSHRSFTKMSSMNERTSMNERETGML
- test.description: cell-based or functional assay
Numbered stars: 1 amine (or outer) side, 2 acyl side, 3 side chain; on linkers, the order of the positions; unused ones are H or OH. Square brackets hold non-standard residues; d marks the D form. Primed or numbered codes have the meaning given here. Ends that are not written are not given here. * marks the point of attachment. TP5C = (S)-4,5,6,7-tetrahydrothieno[2,3-c]pyridine-5-carboxylic acid, O=C([C@@H]1Cc2ccsc2CN1[*:1])[*:2]; TP6C = (S)-4,5,6,7-tetrahydrothieno[2,3-c]pyridine-6-carboxylic acid, O=C([C@@H]1Cc2ccsc2CN1[*:1])[*:2]; Bpa = N[C@@H](Cc1ccc(C(=O)c2ccccc2)cc1)C(=O)O; dTyr(3-F) = N[C@H](Cc1ccc(O)c(F)c1)C(=O)O; PEG8 = NCCOCCOCCOCCOCCOCCOCCOCCOCCC(=O)O; Pro(diF)″ = difluoroproline (DiFluorPro); 2Nal = N[C@@H](Cc1ccc2ccccc2c1)C(=O)O; dNMeY = CN[C@H](Cc1ccc(O)cc1)C(=O)O; Hydrocinnamoyl = O=C(CCc1ccccc1)*; Tic = O=C(O)[C@@H]1Cc2ccccc2CN1; dTic = O=C(O)[C@H]1Cc2ccccc2CN1; NMeL = CN[C@@H](CC(C)C)C(=O)O; Lauroyl = CCCCCCCCCCCC(=O)*; NMeS = CN[C@@H](CO)C(=O)O; Thz = O=C(O)[C@@H]1CSCN1; βAla = NCCC(=O)O
Catalogue of EC50 (µM), activation of Tango CMKLR1-bla U2OS cells readings, one per entry.
measurement.name: EC50 (µM), activation of Tango CMKLR1-bla U2OS cells

1) [dY]FL[Thz][dS]QF[dA][Tic]S-OH (N-terminus assumed; SMILES CC(C)C[C@H](NC(=O)[C@H](Cc1ccccc1)NC(=O)[C@H](N)Cc1ccc(O)cc1)C(=O)N1CSC[C@H]1C(=O)N[C@H](CO)C(=O)N[C@@H](CCC(N)=O)C(=O)N[C@@H](Cc1ccccc1)C(=O)N[C@H](C)C(=O)N1Cc2ccccc2C[C@H]1C(=O)N[C@@H](CO)C(=O)O) [YW-114] = 0.005
2) [dY]FLP[dS]QF[dA][TP6C]S-OH (N-terminus assumed; SMILES CC(C)C[C@H](NC(=O)[C@H](Cc1ccccc1)NC(=O)[C@H](N)Cc1ccc(O)cc1)C(=O)N1CCC[C@H]1C(=O)N[C@H](CO)C(=O)N[C@@H](CCC(N)=O)C(=O)N[C@@H](Cc1ccccc1)C(=O)N[C@H](C)C(=O)N1Cc2sccc2C[C@H]1C(=O)N[C@@H](CO)C(=O)O) [YW-159] = 0.018
3) [dTyr(3-F)]F[NMeL]P[dS]Q[2Nal][dA][Tic][NMeS] (not fully specified (residue 4); printed as (D-Tyr(3F))-Phe-(NMe-Leu)-Pro(tran-4F)-(D-Ser)-Gln-(Nal-2)-(D-Ala)-Tic-(NMe-Ser)) [YW-221] = 0.00068
4) [dY]FLP[dS]QF[dA][Tic]S-OH (not fully specified (N-terminus); printed as 3,5-dihydroxyphenylacetyl-(D-Tyr)-Phe-Leu-Pro-(D-Ser)-Gln-Phe-(D-Ala)-Tic-Ser-OH) [YW-132] = 0.0055
5) {Lauroyl-PEG8}-[βAla][βAla][dNMeY]F[NMeL]P[dS]Q[2Nal][dA][Tic][NMeS] [YW-181] = 0.0022
6) [dY]FLP[dS]QF[dA][dTic]S-OH (N-terminus assumed; SMILES CC(C)C[C@H](NC(=O)[C@H](Cc1ccccc1)NC(=O)[C@H](N)Cc1ccc(O)cc1)C(=O)N1CCC[C@H]1C(=O)N[C@H](CO)C(=O)N[C@@H](CCC(N)=O)C(=O)N[C@@H](Cc1ccccc1)C(=O)N[C@H](C)C(=O)N1Cc2ccccc2C[C@@H]1C(=O)N[C@@H](CO)C(=O)O) [YW-149] = 0.021
7) {4‑(trifluoromethyl)benzoyl}-[dY]F[NMeL]P[dS]QF[dA][Tic]S-OH [YW-195] = 0.0008
8) [dY]FLP[dS]Q[Bpa][dA][Tic]S-OH (N-terminus assumed; SMILES CC(C)C[C@H](NC(=O)[C@H](Cc1ccccc1)NC(=O)[C@H](N)Cc1ccc(O)cc1)C(=O)N1CCC[C@H]1C(=O)N[C@H](CO)C(=O)N[C@@H](CCC(N)=O)C(=O)N[C@@H](Cc1ccc(C(=O)c2ccccc2)cc1)C(=O)N[C@H](C)C(=O)N1Cc2ccccc2C[C@H]1C(=O)N[C@@H](CO)C(=O)O) [YW-119] = 0.0099
9) Hydrocinnamoyl-[dY]F[NEtL]P[dS]QF[dA][Tic]S [YW-185] = 0.0059
10) [dY]FL[S‑Pip][dS]QF[dA][Tic]S [YW-96] = 0.039
11) [dY]F[NMeL]P[dS]QF[dA][Tic][NMeHoSer]-OH [YW-177] = 0.025
12) [dY]FLP[dS]QF[dA][TP5C]S-OH (N-terminus assumed; SMILES CC(C)C[C@H](NC(=O)[C@H](Cc1ccccc1)NC(=O)[C@H](N)Cc1ccc(O)cc1)C(=O)N1CCC[C@H]1C(=O)N[C@H](CO)C(=O)N[C@@H](CCC(N)=O)C(=O)N[C@@H](Cc1ccccc1)C(=O)N[C@H](C)C(=O)N1Cc2sccc2C[C@H]1C(=O)N[C@@H](CO)C(=O)O) [YW-158] = 0.065
13) [dTyr(3-F)]F[NMeL][Pro(diF)″][dS]Q[2Nal][dA][Tic][NMeS]-OH [YW-226] = 0.0033
14) {3,5‑dihydroxyphenylacetyl}-[dY]FLP[dS]QF[dA][Tic]S [YW-131] = 0.0029
